# testMethodNotes: Dual reporter qHTS for antagonist of Pregnane X Receptor (hPXR) against the NCATS DSHEA and TCM libraries: Fluorescence Readout (AID 1920061)
# setupConditions: PXR dual reporter cells, antagonist mode; series mostly up to 22 µM
Results filed as inconclusive are left out. Activity calls are given as the source filed them. Calls come from the whole dose curve; as a rule, active = well fitted curve in the direction sought with a large enough effect; inconclusive = small, poorly fitted or top-dose-only effect, or another doubt; inactive = no such curve, though single readings can be large or run the other way.
observable: outcome

CC(C)=CCC[C@](C)(O[C@@H]1O[C@H](CO[C@@H]2O[C@H](CO)[C@@H](O)[C@H](O)[C@H]2O)[C@@H](O)[C@H](O)[C@H]1O)C1CC[C@]2(C)[C@@H]1[C@H](O)CC1[C@@]3(C)CC[C@H](O[C@@H]4O[C@H](CO)[C@@H](O)[C@H](O)[C@H]4O[C@@H]4O[C@H](CO)[C@@H](O)[C@H](O)[C@H]4O)C(C)(C)[C@@H]3CC[C@]12C (some centres not stated) = inactive
CC(C)=CCC[C@](C)(O)[C@H]1CC[C@]2(C)[C@@H]1[C@H](O)CC1[C@@]3(C)CC[C@H](O)C(C)(C)[C@@H]3[C@@H](O[C@@H]3O[C@H](CO)[C@@H](O)[C@H](O)[C@H]3O[C@@H]3O[C@H](CO)[C@@H](O)[C@H](O)[C@H]3O)C[C@]12C (some centres not stated) = inactive
